inhibition values by entry
- assayed.target: Large T antigen (Simian virus 40)
- assay.overview: SV40 large T antigen inhibitors, biochemical (AID 1903)
- stated.conditions: SV40 large T antigen ATPase/helicase inhibition assay; at 20 µM; stronger effect = higher value
Out of some 310,000 compounds screened, about 1,200 (0.39%) were called active. These entries were drawn from the full list. Results with a measured potency or affinity are listed apart.

molecule: NC(=O)c1cc(N)ccc1N1CCCC1
inhibition, %: 18.4
//
molecule: CCN(C=NC1=NN(c2cccc(C(F)(F)F)c2)CC1)CC
inhibition, %: 22.2
//
molecule: CC(O)CNCCOc1ccccc1-c1ccccc1 (stereo not drawn)
inhibition, %: 8.76
//
molecule: C/C(=N\NC(=O)Cn1cc([N+](=O)[O-])cn1)c1ccco1
inhibition, %: -0.91
//
molecule: O=C(c1ccco1)N1CCN(C(=O)c2cc(-c3ccc(F)cc3)no2)CC1
inhibition, %: 8.37
//
molecule: Nc1ccc(C(=O)c2cccs2)cc1
inhibition, %: 6.86
//
molecule: Cc1ccc(CNC(=O)c2nn(C)c(C)c2[N+](=O)[O-])cc1
inhibition, %: 10.1
//
molecule: CC(=O)c1cc2cc(O)ccc2o1
inhibition, %: 3.38
//
molecule: O=c1cc(O)c2ccc(O)cc2o1
inhibition, %: 4.04
//
molecule: Cc1ccc(NC(=O)CSc2ccc3nnc(CCNC(=O)c4ccccc4)n3n2)c(C)c1
inhibition, %: 9.38
//
molecule: Cc1oc2ccccc2c1CC(=O)NCCCN(C)C
inhibition, %: -4.93
//
molecule: O=C(Cc1cccs1)NNC(=O)c1ccc(F)cc1
inhibition, %: 8.96
//
molecule: COc1cc(/C=C(/C#N)C(=O)Nc2ccccc2)c(Br)cc1OCc1ccc(C(=O)O)cc1
inhibition, %: 12.2
//
molecule: COC(=O)c1ccc(COc2ccccc2/C=C(\C#N)C(=O)Nc2ccc(C)cc2)cc1
inhibition, %: 3.16
//
molecule: Cc1ccc(NC(=O)CN(C)S(=O)(=O)c2ccc3[nH]c(=O)oc3c2)c(C)c1
inhibition, %: 10.9
//
molecule: CCCCOc1ccc(C(=O)NCc2ccccn2)cc1
inhibition, %: -4.84
//
molecule: OCCN(C=NC1=NN(c2cccc(C(F)(F)F)c2)CC1)CCO
inhibition, %: 29.5
//
molecule: O=c1c(OC2OC(CO)C(O)C(O)C2OC2OC(CO)C(O)C(O)C2OC2OC(CO)C(O)C(O)C2O)c(-c2ccc(O)c(O)c2)oc2cc(O)cc(O)c12 (stereo not drawn)
inhibition, %: 7.41
//
molecule: C/C(=N\NC(=O)c1cccc(N/N=C(\C)c2ccc([N+](=O)[O-])cc2)c1)c1ccc([N+](=O)[O-])cc1
inhibition, %: 7.03
//
molecule: CS(=O)(=O)c1ccc(Cl)c(NC(=O)CCNC(=O)c2ccco2)c1
inhibition, %: 1.63
//
molecule: Cc1cc(=O)oc2cc(O)ccc12
inhibition, %: 17.8
//
molecule: Cc1ccc(C(=O)c2cc(C)sc2N)cc1
inhibition, %: 19.1
//
molecule: NC(=O)c1cc(N)ccc1N1CCCCC1
inhibition, %: 36
